molecular target: UniProt Q9UQ88; conditions: displacement of SNS-032-Atto590 probe (0.002 μM) from CDK11A-p58 (0.032 uM), fluorescence polarization;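 also: compound preincubated 30 min with CDK11A-p58, then probe added and polarization (mP) read 15 min later, 0% displacement is probe plus enzyme, 100% is probe alone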
Sequence (Q9UQ88 346-783): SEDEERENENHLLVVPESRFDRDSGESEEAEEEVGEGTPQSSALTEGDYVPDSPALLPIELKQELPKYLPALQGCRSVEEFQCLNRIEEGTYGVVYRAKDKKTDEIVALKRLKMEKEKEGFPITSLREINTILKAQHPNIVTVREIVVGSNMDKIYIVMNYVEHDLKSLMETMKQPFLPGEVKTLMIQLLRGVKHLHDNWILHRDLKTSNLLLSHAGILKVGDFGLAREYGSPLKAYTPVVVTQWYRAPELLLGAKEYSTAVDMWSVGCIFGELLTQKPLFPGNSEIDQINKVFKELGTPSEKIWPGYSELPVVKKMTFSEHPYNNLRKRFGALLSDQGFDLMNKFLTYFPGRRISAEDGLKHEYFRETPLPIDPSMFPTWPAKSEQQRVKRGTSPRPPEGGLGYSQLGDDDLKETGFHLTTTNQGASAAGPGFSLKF
Counter-ions that a name gives are not always drawn.
MEASURED ATTRIBUTE: DC50 (nM)

Query :: Quote DC50 reported for N#Cc1ccc(Cl)c(-c2ccc3[nH]nc(NC(=O)C4CC(NC5CC5)C4)c3c2)c1 (stereo not drawn) [compound 155, hydrochloride] please.
Result :: 53

Query :: Provide one value: measured DC50 of N#Cc1ccc(Cl)c(-c2ccc3[nH]nc(NC(=O)[C@@H]4CCC5(CCCC5)NC4)c3c2)c1 (single isomer, unassigned) [compound 204, hydrochloride]
Result :: 30

Query :: Determine its reported DC50: CCCCCN1CCC(C(=O)Nc2n[nH]c3ccc(-c4cc(C#N)ccc4Cl)cc23)CC1 [compound 142, hydrochloride]
Result :: 95

a = CC1(C)CCC(C(=O)Nc2n[nH]c3ccc(-c4cc(C#N)ccc4Cl)cc23)CN1 (stereo not drawn) [compound 184, hydrochloride]
b = CC(C)(CO)CN1CCC(C(=O)Nc2n[nH]c3ccc(-c4c(Cl)cccc4Cl)cc23)CC1
c = N#Cc1ccc(Cl)c(-c2ccc3[nH]nc(NC(=O)[C@@H]4CCC5(CCCCC5)NC4)c3c2)c1 (single isomer, unassigned) [compound 207]
Query :: Please give the order of these compounds when sorted by DC50, largest value leading. Give me the labels in the order the question wants.
Result :: c, b, a
(c: 229 nM, b: 135 nM, a: 29 nM)

P = CC(C)(C)COC(=O)n1nc(NC(=O)[C@@H]2CCCNC2)c2cc(-c3cc(C#N)ccc3Cl)ccc21 [cpd 212, hydrochloride]
Q = CC(C)N1CCC(C(=O)Nc2n[nH]c3ccc(-c4cc(C#N)ccc4Cl)cc23)CC1 [compound 143, hydrochloride]
Query :: Which has the higher DC50, P or Q ? // output: label of the selected item
Result :: P

A = Cc1ccc(F)c(-c2ccc3[nH]nc(NC(=O)[C@@H]4CCCNC4)c3c2)c1 [cpd 32, hydrochloride]
B = CCCCN1CCC(C(=O)Nc2n[nH]c3ccc(-c4c(Cl)cccc4Cl)cc23)CC1
Query :: Of A and B , which shows the smaller DC50 value? I would appreciate it if you answered with the label of your choice.
Result :: A
(A: 23 nM, B: 122 nM)

1 = Cc1ccc(C#N)cc1-c1ccc2[nH]nc(NC(=O)[C@@H]3CCCNC3)c2c1 [cpd 24, hydrochloride]
2 = CN1CCC(C(=O)Nc2n[nH]c3ccc(-c4c(F)ccc(C#N)c4F)cc23)CC1
Query :: Between 1 and 2 , whose measured DC50 reads higher? # reply format: chosen label
Result :: 2

1 = CN1CCC(C(=O)Nc2n[nH]c3ccc(-c4ccccc4Cl)cc23)CC1 [cpd 85, hydrochloride]
2 = N#Cc1ccc(F)c(-c2ccc3[nH]nc(NC(=O)[C@@H]4CCCNC4)c3c2)c1 [cpd 25, hydrochloride]
Query :: Of 1 and 2 , which carries the smaller reported DC50 figure? Please reply using the label of the selected record.
Result :: 2
(2: 31 nM, 1: 393 nM)
